# experimental-target: furin, P09958;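 also: purified furin at 1:10 enzyme:substrate in 50 mM HEPES pH 7.5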
# Sequence (P09958 whole entry): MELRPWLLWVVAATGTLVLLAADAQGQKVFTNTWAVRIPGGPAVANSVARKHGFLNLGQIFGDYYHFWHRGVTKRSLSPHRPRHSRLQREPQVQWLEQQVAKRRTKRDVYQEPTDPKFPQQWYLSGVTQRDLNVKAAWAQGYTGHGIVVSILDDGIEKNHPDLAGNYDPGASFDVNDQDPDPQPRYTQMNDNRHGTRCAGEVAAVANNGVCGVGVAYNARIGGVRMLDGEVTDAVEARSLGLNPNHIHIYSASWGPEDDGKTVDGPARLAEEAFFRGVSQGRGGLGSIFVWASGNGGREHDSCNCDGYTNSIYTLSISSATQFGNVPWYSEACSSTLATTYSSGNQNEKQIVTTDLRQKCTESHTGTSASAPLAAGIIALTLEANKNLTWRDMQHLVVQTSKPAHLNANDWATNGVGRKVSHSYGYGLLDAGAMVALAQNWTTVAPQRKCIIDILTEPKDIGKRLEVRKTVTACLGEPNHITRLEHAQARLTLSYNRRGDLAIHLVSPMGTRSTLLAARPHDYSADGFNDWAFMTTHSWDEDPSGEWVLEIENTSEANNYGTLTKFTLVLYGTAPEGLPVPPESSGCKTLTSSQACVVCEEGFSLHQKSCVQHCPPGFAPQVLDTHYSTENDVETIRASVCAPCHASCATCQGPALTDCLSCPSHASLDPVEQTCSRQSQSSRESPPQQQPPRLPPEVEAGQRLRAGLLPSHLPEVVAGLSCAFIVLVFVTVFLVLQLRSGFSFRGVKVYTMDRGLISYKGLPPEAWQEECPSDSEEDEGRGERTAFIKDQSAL
# assay: furin cleavage Z-score vs untreated control; higher = more cleavage, active = 3.5 or more, inactive = 1 or less, 8 variable residues between constant flanks
# condition-set: 30 min
The list shows a part of the results. The true hit rate is not given.
readout-label: furin cleavage Z-score
Enter the number alone.

// CALGVRVCEKAGNASASA [HC1453] : furin cleavage Z-score value = -1.56

The value of furin cleavage Z-score measured for the sequence CAECHSTDATAGNASASA [HC819] turned out to be 0.253

The value of furin cleavage Z-score measured for the sequence CASIVYEAADAGNASASA [HC266] turned out to be 0.406

The sequence listed as CATYSRCGSGAGNASASA [HC457] shows furin cleavage Z-score equal to 0.00889
